# system-under-test: Recombinant TYK2 (Homo sapiens, UniProt P29597)
# Construct: purchased Carna Biosciences
# Sequence (P29597 whole entry): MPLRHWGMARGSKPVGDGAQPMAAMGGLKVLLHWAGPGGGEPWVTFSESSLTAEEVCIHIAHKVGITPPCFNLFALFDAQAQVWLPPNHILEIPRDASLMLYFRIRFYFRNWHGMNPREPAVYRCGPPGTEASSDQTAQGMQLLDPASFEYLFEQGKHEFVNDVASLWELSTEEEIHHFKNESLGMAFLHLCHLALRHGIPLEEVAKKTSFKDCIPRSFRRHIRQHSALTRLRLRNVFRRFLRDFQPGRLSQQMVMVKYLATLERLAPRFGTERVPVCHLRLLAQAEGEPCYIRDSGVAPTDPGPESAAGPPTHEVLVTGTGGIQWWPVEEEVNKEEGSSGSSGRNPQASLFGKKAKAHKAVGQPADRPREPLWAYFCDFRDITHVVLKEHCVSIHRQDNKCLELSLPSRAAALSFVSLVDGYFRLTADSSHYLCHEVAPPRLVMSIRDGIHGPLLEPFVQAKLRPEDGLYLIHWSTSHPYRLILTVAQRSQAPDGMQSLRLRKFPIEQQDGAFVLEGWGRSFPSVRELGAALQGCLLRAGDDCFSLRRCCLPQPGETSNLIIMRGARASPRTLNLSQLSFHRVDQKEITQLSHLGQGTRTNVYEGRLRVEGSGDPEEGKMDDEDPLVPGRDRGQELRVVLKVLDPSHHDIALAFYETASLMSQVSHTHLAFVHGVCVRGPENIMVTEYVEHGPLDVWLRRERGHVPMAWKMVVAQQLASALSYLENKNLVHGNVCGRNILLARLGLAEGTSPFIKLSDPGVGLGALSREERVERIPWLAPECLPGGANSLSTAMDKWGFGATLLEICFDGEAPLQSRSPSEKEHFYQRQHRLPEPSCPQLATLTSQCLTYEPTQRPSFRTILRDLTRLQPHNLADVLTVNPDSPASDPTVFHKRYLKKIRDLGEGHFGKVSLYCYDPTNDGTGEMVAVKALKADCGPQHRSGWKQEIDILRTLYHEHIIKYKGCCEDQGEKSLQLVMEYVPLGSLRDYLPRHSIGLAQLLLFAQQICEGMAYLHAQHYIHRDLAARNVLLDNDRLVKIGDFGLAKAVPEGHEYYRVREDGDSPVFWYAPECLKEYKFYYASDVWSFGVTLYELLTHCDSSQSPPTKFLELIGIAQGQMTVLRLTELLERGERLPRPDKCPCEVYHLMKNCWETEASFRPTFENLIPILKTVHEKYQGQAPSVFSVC
# method-description: JAK biochemical assay (LANCE Ultra TR-FRET), TYK2
# cond: recombinant TYK2, TR-FRET; read-out: Biochemical Assay (μM) TYK2
# Method: Recombinant JAK1, JAK2, JAK3 and TYK2 (Carna Biosciences) were used to develop biochemical assays in 50 mM HEPES pH 7.5, 1 mM EGTA, 10 mM MgCl2, 2 mM DTT and 0.01% Tween-20. […] The intensity of the light emission is proportional to the level of ULight substrate phosphorylation. Compounds which interfere with JAK enzyme activity show a lesser substrate phosphorylation and values are projected in terms of % inhibition in comparison to vehicle control.
Each entry below carries its reported IC50.

molecule	endpoint-name	result
COCCC(c1ccc(-n2cc(-c3ccnc4[nH]cnc34)cn2)nc1)C(F)(F)F (stereo not shown) [Example 1155]	IC50	> 1 µM

Recorded IC50 for O=C(NCCC(c1ccc(-n2cc(-c3ccnc4[nH]cnc34)cn2)nc1)C(F)(F)F)C1CC1 (stereo not shown) [Example 1149] , please?
> 1 µM

Field entry: N#CC1CN(CCC(c2ccc(-n3cc(-c4ccnc5[nH]cnc45)cn3)nc2)C(F)(F)F)C1 (stereo not shown) [Example 1202]
> 0.5 µM

Also O=C(NC1CC1)NC(c1ccc(-n2cc(-c3ccnc4[nH]cnc34)cn2)nc1)C(F)(F)F (stereo not shown) [Example 1178] , if possible.
> 1 µM

Also check N#CCc1csc(-n2cc(-c3ccnc4[nH]cnc34)cn2)n1 [Example 1076]
> 1 µM

Then what about the molecule CS(=O)(=O)Cc1ccc(-n2cc(-c3ccnc4[nH]cnc34)cn2)nc1 [Example 1080] ?
> 10 µM

The measurements presented in this section are drawn from patent US12516056B2.
